- tgt: Androgen Receptor (AR) (Homo sapiens, UniProt P10275, T878A)
- Construct: cell based immuno-fluorescence assay using the LNCaP prostate epithelial cell line; endogenous in cells; host or cells: LNCaP clone FGC (ATCC CRL-1740)
- protocol_description: LNCaP Androgen Receptor Down-regulation Cell Assay (immunofluorescence end point)
- Format: cell-based
- measurement_setup: LNCaP prostate carcinoma cells, compound incubation 20-22 hours, 50% reduction of the AR signal; read-out: Androgen Receptor Down-regulation Assay (a) IC50/μM
attribute_measured: DC50

Examples with answers:
Entry Fc1ccc(CN2CCCN(c3ccc4nnc(C(F)(F)F)n4n3)CC2)cc1 [Example 177] ; assay system Androgen Receptor (AR) (Homo sapiens, UniProt P10275, T878A); DC50 recorded at 0.77 µM

Entry FC(F)(F)c1nnc2ccc(N3CCC(Cc4ccncc4)CC3)nn12 [Example 538] ; assay system Androgen Receptor (AR) (Homo sapiens, UniProt P10275, T878A); DC50 recorded at 2.3 µM

Entry FC(F)(F)c1nnc2ccc(N3CCN(Cc4cccnc4Cl)CC3)nn12 [Example 369] ; assay system Androgen Receptor (AR) (Homo sapiens, UniProt P10275, T878A); DC50 recorded at 8.7 µM

Entry CS(=O)(=O)c1cc(F)cc(CN2CCN(c3ccc4nnc(C(F)F)n4n3)CC2)c1 [Example 859] ; assay system Androgen Receptor (AR) (Homo sapiens, UniProt P10275, T878A); DC50 recorded at > 33 µM

Entry FC(F)(F)c1nnc2ccc(N3CCN(c4noc(-c5ccccc5)n4)CC3)nn12 [Example 275] ; assay system Androgen Receptor (AR) (Homo sapiens, UniProt P10275, T878A); DC50 recorded at 6 µM

// each molecule listed below needs its DC50
1. COc1cc(CN2CCN(c3ccc4nnc(C(F)F)n4n3)CC2)ccc1F [Example 257]
2. COCCN(C)C(=O)c1ccc2[nH]cc(C3CCN(c4ccc5nnc(C(F)(F)F)n5n4)CC3)c2c1 [Example 504]

// result
["9 µM", "1.9 µM"]

---

- tgt: Androgen Receptor (AR) (Homo sapiens, UniProt P10275, T878A)
- Construct: cell based immuno-fluorescence assay using the LNCaP prostate epithelial cell line; endogenous in cells; host or cells: LNCaP clone FGC (ATCC CRL-1740)
- Sequence (P10275 1-920 T878A): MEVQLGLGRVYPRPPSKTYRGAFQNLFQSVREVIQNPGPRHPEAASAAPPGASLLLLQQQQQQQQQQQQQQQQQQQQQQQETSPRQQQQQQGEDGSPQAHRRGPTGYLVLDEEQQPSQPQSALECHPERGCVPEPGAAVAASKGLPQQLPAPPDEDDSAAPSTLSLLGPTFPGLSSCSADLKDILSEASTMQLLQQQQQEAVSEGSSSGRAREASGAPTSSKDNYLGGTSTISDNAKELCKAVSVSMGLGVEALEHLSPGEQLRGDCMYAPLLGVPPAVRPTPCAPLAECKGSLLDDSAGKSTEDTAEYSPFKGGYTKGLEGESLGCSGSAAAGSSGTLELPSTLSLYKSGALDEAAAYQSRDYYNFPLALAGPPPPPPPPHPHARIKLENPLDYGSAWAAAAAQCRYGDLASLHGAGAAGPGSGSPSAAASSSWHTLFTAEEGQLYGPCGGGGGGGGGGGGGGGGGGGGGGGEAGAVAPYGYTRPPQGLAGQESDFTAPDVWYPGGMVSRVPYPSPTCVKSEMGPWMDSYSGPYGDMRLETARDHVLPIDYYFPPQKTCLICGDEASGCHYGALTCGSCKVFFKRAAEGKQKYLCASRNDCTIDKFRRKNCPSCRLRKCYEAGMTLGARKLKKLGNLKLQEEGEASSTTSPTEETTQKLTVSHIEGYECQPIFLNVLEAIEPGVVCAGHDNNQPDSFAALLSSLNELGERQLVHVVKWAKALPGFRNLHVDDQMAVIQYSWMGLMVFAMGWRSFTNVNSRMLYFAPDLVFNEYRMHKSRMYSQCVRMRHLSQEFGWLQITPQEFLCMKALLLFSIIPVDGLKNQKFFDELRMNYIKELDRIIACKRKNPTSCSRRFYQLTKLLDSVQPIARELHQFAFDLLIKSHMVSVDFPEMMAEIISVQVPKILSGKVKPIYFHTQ
- protocol_description: LNCaP Androgen Receptor Down-regulation Cell Assay (immunofluorescence end point)
- Format: cell-based
- measurement_setup: LNCaP prostate carcinoma cells, compound incubation 20-22 hours, 50% reduction of the AR signal; read-out: Androgen Receptor Down-regulation Assay (a) IC50/μM
Classification field. Basis: DC50. Definitions: lower level (below 2 µM), middle level (2 µM to below 4 µM), upper level (4 µM or more)

Solved entries (count: 5):
// query Which class does FC(F)(F)c1nnc2ccc(N3CC4CN(Cc5cnccc5Cl)CC4C3)nn12 (centres unmarked) [Example 800] fall in?
// result lower level

// query Which class does FC(F)(F)c1nnc2ccc(N3CCC(COC4CCOCC4)CC3)nn12 [Example 294] fall in?
// result upper level

// query Which class does COc1cccc(OC2CCN(c3ccc4nnc(C(F)(F)F)n4c3)CC2)c1 [Example 806] fall in?
// result middle level

// query Which class does CN(C)c1ccc(CN2CCN(c3ccc4nnc(C(F)(F)F)n4n3)CC2)cc1 [Example 106] fall in?
// result upper level

// query Which class does N#Cc1ccc(CN2[C@@H]3CC[C@H]2CN(c2ccc4nnc(C(F)(F)F)n4n2)C3)cc1 [Example 841] fall in?
// result middle level

Further cases:
// query Which class does Fc1cncc(C2CCN(c3ccc4nnc(C(F)(F)F)n4n3)CC2)c1 [Example 612] fall in?
// result upper level

---

- tgt: Androgen Receptor (AR) (Homo sapiens, UniProt P10275, T878A)
- Construct: cell based immuno-fluorescence assay using the LNCaP prostate epithelial cell line; endogenous in cells; host or cells: LNCaP clone FGC (ATCC CRL-1740)
- Sequence (P10275 1-920 T878A): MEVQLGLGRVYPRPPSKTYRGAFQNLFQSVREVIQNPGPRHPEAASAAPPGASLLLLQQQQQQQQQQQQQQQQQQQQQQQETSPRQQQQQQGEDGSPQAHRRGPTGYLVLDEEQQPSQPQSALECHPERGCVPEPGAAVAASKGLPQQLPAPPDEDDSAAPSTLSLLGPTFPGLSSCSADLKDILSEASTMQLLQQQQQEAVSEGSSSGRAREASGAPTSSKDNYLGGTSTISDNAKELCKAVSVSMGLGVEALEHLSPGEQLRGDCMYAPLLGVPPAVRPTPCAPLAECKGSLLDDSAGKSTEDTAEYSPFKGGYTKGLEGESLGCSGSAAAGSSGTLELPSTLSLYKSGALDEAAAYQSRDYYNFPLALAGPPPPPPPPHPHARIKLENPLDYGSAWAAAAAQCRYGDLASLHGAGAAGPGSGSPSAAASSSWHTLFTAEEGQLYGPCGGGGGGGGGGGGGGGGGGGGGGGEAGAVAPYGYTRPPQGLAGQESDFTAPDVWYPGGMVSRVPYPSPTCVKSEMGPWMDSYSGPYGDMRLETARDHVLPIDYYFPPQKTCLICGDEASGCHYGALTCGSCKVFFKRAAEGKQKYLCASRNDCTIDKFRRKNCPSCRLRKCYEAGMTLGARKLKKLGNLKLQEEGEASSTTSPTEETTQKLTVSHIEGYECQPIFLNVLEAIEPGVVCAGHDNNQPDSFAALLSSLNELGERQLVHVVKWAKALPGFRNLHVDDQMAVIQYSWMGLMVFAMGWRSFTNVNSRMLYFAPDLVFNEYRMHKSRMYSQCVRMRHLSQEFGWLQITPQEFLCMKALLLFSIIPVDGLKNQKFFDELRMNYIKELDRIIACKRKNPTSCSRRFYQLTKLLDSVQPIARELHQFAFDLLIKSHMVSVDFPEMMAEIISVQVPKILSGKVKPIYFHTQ
- protocol_description: LNCaP Androgen Receptor Down-regulation Cell Assay (immunofluorescence end point)
- Type: cell-based
- measurement_setup: LNCaP prostate carcinoma cells, compound incubation 20-22 hours, 50% reduction of the AR signal; read-out: Androgen Receptor Down-regulation Assay (a) IC50/μM
- Method: The ability of compounds to reduce Androgen Receptor (AR) numbers was assessed in a cell based immuno-fluorescence assay using the LNCaP prostate epithelial cell line. a) LNCaP Androgen Receptor Down-regulation Cell Assay […] Immunostaining was performed at room temperature. […] Then 50 μl of PBST was added to each well and plates were covered with a black plate seal and stored at 4° C. before being read. Plates were read within six hours of completing the immunostaining. […]
Exercise: for every item that follows, state its recorded DC50.
Give bare numbers, in µM.

Measured DC50, Cn1nccc1CCOc1cccc(C2CCN(c3ccc4nnc(C(F)(F)F)n4n3)CC2)c1 : 0.58

// each molecule listed below needs its DC50
1. FC(F)C(F)(F)c1nnc2ccc(N3CCCN(Cc4ccccc4)CC3)nn12
2. FC(F)(F)c1nnc2ccc(N3CCN(Cc4ccc(Oc5ccccc5)nc4)CC3)nn12
3. C[C@H]1CN(Cc2ccc(C(F)(F)F)nc2)CCN1c1ccc2nnc(C(F)(F)F)n2n1
4. C[C@H](c1ccc(C#N)cc1)N1CCN(c2ccc3nnc(C(F)(F)F)n3n2)CC1
5. FC(F)(F)c1nnc2ccc(N3CCN(c4ccc(Br)cn4)CC3)nn12
6. C[C@H]1CN(Cc2ccccn2)CCN1c1ccc2nnc(C(F)(F)F)n2n1

// result
8.3
4.9
4.7
3.4
2.5
2.6

Measured DC50, CN(C)CCNC(=O)c1ccc(OC2CCN(c3ccc4nnc(C(F)(F)F)n4n3)CC2)cc1 : 2.6
